Experiment: gradient 5% acetonitrile 3 min, to 50% in 2 min, to 85% in 15 min, held 3 min, 100 µL/min
Conditions: column: Zorbax Extend-C18 2.1 x 50 mm; eluents: water / acetonitrile, 0.1% formic acid
measureName: RP-LC retention time (s)

Use these answered entries as a reference point.
- CCNC(=O)NCC1CCN(S(=O)(=O)C2CC2)CC1: 579
- Cc1ccc(-c2cc(C(=O)NCCN3CCCC3)n(C)c2)cc1: 670
- CC(C)n1cnc2ccc(-c3noc(COc4ccccc4)n3)cc21: 770
- O=C(NCc1ccc(F)cc1F)c1ccc2c(c1)ncn2CCN1CCCC1: 576
- O=C(CC(c1cccs1)N1Cc2ccccc2C1=O)N1CCN(c2ccccn2)CC1 (stereo not given): 632
- CCOC(=O)CCC(=O)Nc1ccc(S(=O)(=O)N2CCc3ccccc32)cc1: 834
- COc1ccc(C(=O)N2CCC3(CC2)N=C(c2ccc(Cl)cc2)NO3)cc1F: 819
- NS(=O)(=O)c1ccc(CCNCc2ccc(-c3ccc(Cl)cc3)o2)cc1: 810

(a) O=C(NC1CCCCC1)N1CCC(OC2CCN(Cc3ccccc3)CC2)CC1
(b) O=C(c1cccs1)N(Cc1ccco1)c1nc2c(F)cc(F)cc2s1
Qu. From the recorded data, which exceeds the other in RP-LC retention time: a or b ? Write down the label attached to your selection.
Ans. b
(b: 1160 s, a: 663 s)
